# condition_set: in n-propanol, 298.4 K
measured_parameter: solubility (mole fraction)

According to the records, this compound `O=c1[nH]cc(F)c(=O)[nH]1` displays solubility (mole fraction) of 0.00121

###

# condition_set: in ethanol, 329.9 K
measured_parameter: solubility (mole fraction)
Hey, just send me the number, nothing else.

Reported solubility (mole fraction) for `O=c1[nH]cc(F)c(=O)[nH]1` was 0.00399

###

# condition_set: in n-propanol, 282.4 K
measured_parameter: solubility (mole fraction)
Form: value (number only, do not type unit).

Lab note: measured solubility (mole fraction) of `O=c1[nH]cc(F)c(=O)[nH]1` was 0.00089
